Measured Target: H1 histamine receptor (Rattus norvegicus, UniProt P31390)
Sequence (P31390 whole entry): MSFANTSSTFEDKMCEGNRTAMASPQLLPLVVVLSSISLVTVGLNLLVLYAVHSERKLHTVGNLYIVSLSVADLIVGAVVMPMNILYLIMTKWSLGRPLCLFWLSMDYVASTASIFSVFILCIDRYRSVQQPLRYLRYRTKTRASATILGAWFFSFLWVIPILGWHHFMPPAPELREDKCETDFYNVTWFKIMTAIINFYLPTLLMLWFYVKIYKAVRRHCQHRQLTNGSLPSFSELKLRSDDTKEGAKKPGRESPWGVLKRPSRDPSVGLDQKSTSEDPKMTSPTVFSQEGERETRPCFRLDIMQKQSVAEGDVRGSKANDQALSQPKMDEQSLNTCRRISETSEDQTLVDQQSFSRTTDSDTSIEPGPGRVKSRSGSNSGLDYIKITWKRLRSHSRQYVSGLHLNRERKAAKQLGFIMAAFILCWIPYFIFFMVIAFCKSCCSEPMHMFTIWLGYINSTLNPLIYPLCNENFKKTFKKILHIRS
Protocol Details: Interaction with H1 receptors, [3H]-pyrilamine binding, rat cortex membranes
Condition Description: Table 1; mean and standard deviation; read-out: H1 Ki ± ds

| Compound | Unit Abbreviation | Ki |
| --- | --- | --- |
| CN1CCN(C2=Cn3cccc3Sc3ccc(Cl)cc32)CC1 [ST1508] | nM | 2.7 |

Values compiled from patent US6710041B2.
